Assign pIC50 to each entry below.
Target: hGYS1 enzyme (recombinant hGYS1/GN1 protein) (Homo sapiens (Human))
Sequence (P13807 whole entry): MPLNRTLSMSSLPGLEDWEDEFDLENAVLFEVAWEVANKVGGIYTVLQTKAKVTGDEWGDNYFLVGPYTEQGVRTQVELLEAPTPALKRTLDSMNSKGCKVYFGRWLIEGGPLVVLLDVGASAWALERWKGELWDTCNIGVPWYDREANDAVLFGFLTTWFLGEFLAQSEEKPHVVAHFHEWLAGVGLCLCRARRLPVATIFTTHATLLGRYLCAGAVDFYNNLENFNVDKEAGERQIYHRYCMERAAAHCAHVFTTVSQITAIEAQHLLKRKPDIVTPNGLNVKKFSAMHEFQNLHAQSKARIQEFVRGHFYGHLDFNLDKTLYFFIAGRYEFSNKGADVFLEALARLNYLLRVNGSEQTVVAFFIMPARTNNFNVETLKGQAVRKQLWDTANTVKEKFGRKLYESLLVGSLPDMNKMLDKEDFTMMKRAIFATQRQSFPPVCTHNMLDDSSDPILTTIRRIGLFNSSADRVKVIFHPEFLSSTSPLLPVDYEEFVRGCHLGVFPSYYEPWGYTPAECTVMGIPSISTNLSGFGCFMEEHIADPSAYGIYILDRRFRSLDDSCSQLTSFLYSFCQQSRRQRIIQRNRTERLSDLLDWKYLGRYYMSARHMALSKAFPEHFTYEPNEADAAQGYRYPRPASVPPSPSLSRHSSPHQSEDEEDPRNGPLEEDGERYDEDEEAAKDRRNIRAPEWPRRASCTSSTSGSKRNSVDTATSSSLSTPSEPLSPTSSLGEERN
Sequence (P46976 whole entry partner): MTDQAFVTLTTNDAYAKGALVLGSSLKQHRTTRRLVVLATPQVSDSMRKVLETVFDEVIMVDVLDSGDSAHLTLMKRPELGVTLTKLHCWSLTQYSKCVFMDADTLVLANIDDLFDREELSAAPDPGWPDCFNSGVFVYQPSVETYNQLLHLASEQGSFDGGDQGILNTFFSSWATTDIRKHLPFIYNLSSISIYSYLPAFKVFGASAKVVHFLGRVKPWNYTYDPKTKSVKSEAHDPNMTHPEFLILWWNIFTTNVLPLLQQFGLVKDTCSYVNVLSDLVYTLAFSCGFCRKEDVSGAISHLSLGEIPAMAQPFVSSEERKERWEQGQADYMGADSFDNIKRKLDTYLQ
Assay: GYS1 coupled enzyme assay (PK/LDH)
Settings: hGYS1/GN1 50 nM, UDP-Glucose 0.8 mM, G6P 1 mM; geometric mean of at least 2 runs
Source text: The GYS1 coupled enzyme assay is a kinetic biochemical assay that indirectly quantifies the rate of glycogen synthesis by coupling the conversion of GYS1 substrate UDP-glucose into UDP with downstream enzymatic reactions. UDP is released from UDP-glucose as glucose monomers are linked into the growing glycogen strand by GYS1. […] Oxidation of NADH to NAD+ can be measured continuously with a plate reader by quantifying the decrease in NADH absorbance at 340 nm over time. […]
For clarity, pIC50 is expressed as the negative log10 of concentration in mol/L.

Short answer for CC(C)c1ccc(C(NC(=O)[C@@H]2C[C@@H](F)CN2C(=O)Cc2cnn[nH]2)c2ccc3cn[nH]c3c2)nc1F (single isomer, unassigned) [Compound 632] : pIC50 was 7.89

Short answer for COc1ccc(CC(=O)N2C[C@H](F)C[C@H]2C(=O)N[C@@H](c2ccccc2)c2ccc(C(C)C)cc2)cc1F : pIC50 was 7.22

Short answer for CC(C)c1ccc([C@@H](NC(=O)[C@@H]2C[C@@H](F)CN2C(=O)Cc2ccncc2)c2ccccc2)cc1F : pIC50 was 7.52

Short answer for CC(C)c1ccc([C@@H](NC(=O)[C@@H]2C[C@@H](F)CN2C(=O)Cc2ccncn2)c2ccccc2)cc1F : pIC50 was 7.62

Short answer for CC(C)c1ccc([C@@H](NC(=O)[C@@H]2C[C@@H](F)CN2C(=O)Cn2ncc(N(C)C)n2)c2ccccc2)cc1F : pIC50 was 8.22

Short answer for CC(Cn1ccnc1)C(=O)N1C[C@H](F)C[C@H]1C(=O)N[C@@H](c1ccccc1)c1ccc(C(C)C)cc1 (stereo partly drawn) : pIC50 was 6.50
